test system: SARS-CoV-2; assay type: functional, organism-based; details: Severe acute respiratory syndrome coronavirus 2, A549, 96 h
property measured: pEC50
The value called pEC50 is obtained by taking minus log10 of the concentration in mol/L.

Enquiry: Can you share its pEC50? I mean this compound: "CC(C)C[C@H](NC(=O)[C@@H](NC(=O)OCc1ccccc1)[C@H](C)OC(C)(C)C)C(=O)N[C@H](C=O)C[C@@H]1CCNC1=O"
Return: 6.51

====

property measured: pIC50
pIC50 is a log-scale quantity: -log10 of the concentration expressed in molar.

Enquiry: Request body: readout pIC50, system Procathepsin L (Homo sapiens, UniProt P07711), query "CC(C)C[C@H](NC(=O)[C@@H](NC(=O)OCc1ccccc1)[C@H](C)OC(C)(C)C)C(=O)N[C@H](C=O)C[C@@H]1CCNC1=O" . Return the value.
Return: 8.92

====

Give measured pIC50 for each item. Keep answers brief.
molecular target: Replicase polyprotein 1ab (Severe acute respiratory syndrome coronavirus 2); experiment: Inhibition of SARS-CoV-2 Main protease
Scale explanation: pIC50 corresponds to minus log10 of a concentration expressed in moles per litre.

Enquiry: Reported pIC50 for "C[C@H](NC[C@@H](c1cccnc1)N(C(=O)C(Cl)Cl)c1ccc(-c2ccccc2)cc1)c1ccccc1" : what is it?
Return: 6.37

Enquiry: Record request: pIC50 value, item O=C1C=CC(=O)c2c(O)ccc(O)c21 [NAPHTHAZALIN]
Return: 6.31

Enquiry: Suppose we examine the compound "C[C@H](NC[C@@H](c1cccnc1)N(C(=O)C(Br)(Br)Br)c1ccc(-c2ccccc2)cc1)c1ccccc1" ; what pIC50 value has been reported?
Return: 7.10

Enquiry: Given the compound O=C(CCl)N1N=C(c2cc(Cl)ccc2F)C(c2ccccc2)C1c1ccc2nccnc2c1 (centres undefined) , what is its reported pIC50?
Return: 7.85

====

system: SARS-CoV-2; assay type: functional, organism-based, Vero E6; conditions: Severe acute respiratory syndrome coronavirus 2, nCoV-2019BetaCoV/Wuhan/WIV04/2019, Vero C1008
property measured: pEC50
By convention, pEC50 is the negative base-10 log of a molar concentration.

Enquiry: Return reported pEC50; argument: "O=C(c1cccc(Cn2[se]c3ccccc3c2=O)c1)N1CCOCC1"
Return: 5.43

Enquiry: Can you share its pEC50? I mean this molecule: "O=c1c2ccccc2[se]n1Cc1ccc(Cl)cc1"
Return: 5.75

Enquiry: Recorded pEC50 of "COc1cncc(Cn2[se]c3ccccc3c2=O)c1" , please.
Return: 5.50

Enquiry: Would you mind telling me what pEC50 value was observed for "COc1cccc(Cn2[se]c3ccccc3c2=O)c1" ?
Return: 5.35

====

Give Ratio for every item shown.
assay: Selectivity index, ratio of EC50 for antiviral activity against SARS-CoV-2 to […]; type: toxicity

Enquiry: Could you share which Ratio value was measured for "O=C(Oc1cncc(Cl)c1)c1cccc2c1CCN2" ?
Return: 46.87

Enquiry: Entry "O=C[C@H](C[C@@H]1CCNC1=O)NC(=O)[C@@H]1[C@H]2CCC[C@H]2CN1C(=O)OCc1ccccc1" has what Ratio?
Return: 50.2

Enquiry: Please look up its Ratio: "C[C@H](NC[C@@H](c1cccnc1)N(C(=O)C(Cl)Cl)c1ccc(-c2ccccc2)cc1)c1ccccc1"
Return: 4.76

Enquiry: Ratio for O=C(N[C@@H](Cc1ccccc1)C(=O)N[C@@H](C[C@@H]1CCNC1=O)C(O)S(=O)(=O)[O-])OCc1ccccc1.[Na+] (some centres not stated) ?
Return: 45.78

Enquiry: Sample "CC(C)C[C@H](NC(=O)OCc1ccccc1)C(=O)N[C@@H](C[C@@H]1CCNC1=O)C(=O)C(=O)NC1CC1" — what was its Ratio?
Return: 102.44

Enquiry: Report Ratio for "C[C@H](NC[C@@H](c1cccnc1)N(C(=O)C(Br)(Br)Br)c1ccc(-c2ccccc2)cc1)c1ccccc1" please.
Return: 26.87

Enquiry: Consider the compound shown here: "C=CCn1ccc2c(C(=O)Oc3cncc(Cl)c3)cccc21" What is its recorded Ratio?
Return: 205.47

====

target: Replicase polyprotein 1ab (Severe acute respiratory syndrome coronavirus 2, UniProt P0DTD1); experiment: Inhibition of SARS-CoV-2 Main protease by FRET assay
property measured: IC50 (nM)
Give just the number in nM; leave the unit off.

Enquiry: Which IC50 reading was recorded for the compound "CC(C)CCn1sc2ccc(Br)cc2c1=O" ?
Return: 320

====

target: Replicase polyprotein 1ab (Severe acute respiratory syndrome coronavirus 2); test: Inhibition of recombinant SARS-CoV-2 Main protease expressed in Escherichia coli BL21 (DE3) cells using Mca-AVLQSGFR-K(Dnp)K as substrate preincubated for 15 mins followed by substrate addition by FRET assay
property measured: IC50
Show the value, then the unit it is measured in.

Enquiry: Reported IC50 for "COc1cccc(Cn2[se]c3ccccc3c2=O)c1" : what is it?
Return: 0.363 µM

Enquiry: Quick one: IC50 for "COc1cncc(Cn2[se]c3ccccc3c2=O)c1" ?
Return: 0.467 µM

Enquiry: Value lookup for IC50; key = "O=c1c2ccccc2[se]n1Cc1ccc(Cl)cc1"
Return: 0.824 µM

Enquiry: Please look up its IC50: "O=C(c1cccc(Cn2[se]c3ccccc3c2=O)c1)N1CCOCC1"
Return: 0.345 µM

====

target: Replicase polyprotein 1ab (Severe acute respiratory syndrome coronavirus 2, UniProt P0DTD1); test: Inhibition of C-terminal His-tagged SARS-CoV-2 BetaCoV/Wuhan/WIV04/2019 Main protease expressed in Escherichia coli using Dabcyl-KTSAVLQ/SGFRKME(Edans) as substrate by FRET assay
Square brackets hold non-standard residues; d marks the D form. Peptide text beside a SMILES is read from it. Nle = CCCC[C@H](N)C(=O)O
property measured: IC50

Enquiry: Recorded IC50 of CCCC[C@@H](C=O)NC(=O)[C@H](CC(C)C)NC(=O)[C@H](CC(C)C)NC(C)=O (Ac-Leu-Leu-[Nle]-aldehyde) , please.
Return: 0.97 µM

====

system: SARS-CoV-2; experiment: Antiviral activity against SARS-CoV-2 2019-nCoV/USA_WA1/2020 infected in human Huh-7 cells expressing ACE2 measured 24 hrs post infection; assay type: functional, organism-based; conditions: Severe acute respiratory syndrome coronavirus 2, 2019-nCoV/USA_WA1/2020, Huh-7, 24 h
property measured: pEC50
// pEC50 here means minus log10 of the molar concentration (mol/L)

Enquiry: pEC50 for CC(C)C[C@H](NC(=O)OCc1cccc(C(F)(F)F)c1)C(=O)N[C@@H](C[C@@H]1CCNC1=O)C(O)S(=O)(=O)O (stereo partly specified) ?
Return: 8.22

====

Can you tell me Ki for the items I'm about to list?
target: Replicase polyprotein 1ab (Severe acute respiratory syndrome coronavirus 2, UniProt P0DTD1); test: Binding affinity to C-terminal His-tagged SARS-CoV-2 BetaCoV/Wuhan/WIV04/2019 Main protease expressed in Escherichia coli assessed as inhibition constant
Output spec: scalar in nM, unitless text.

Enquiry: Which Ki value belongs to "CC(C)C[C@H](NC(=O)OCc1ccccc1)C(=O)N[C@@H](CC(C)C)C(=O)N[C@@H](C[C@@H]1CCNC1=O)C(=O)C(=O)NC1CC1" ?
Return: 13

Enquiry: Entry "CC(C)C[C@H](NC(=O)OCc1ccccc1)C(=O)N[C@@H](C[C@@H]1CCNC1=O)C(=O)C(=O)NC1CC1" : reported Ki = ?
Return: 36
